The measurements presented in this section are drawn from paper PMC8473641.

Tested on: A549
measurement.protocol: SRB assay A549
Assay type: cell-based
measurement.conditions: Homo sapiens, 72h, mean±SD, n=3, read-out: IC50 A549 72h
Procedure: To investigate the effect of DHW‐221 in vitro, SRB assay was performed. […] Additionally, the long‐term efficacy of DHW‐221 was evaluated and confirmed a better antiproliferation role than NVP‐BEZ235 (Figure 2C–E). […] FIGURE 2 DHW‐221 inhibits the viability of NSCLC cells both in vitro and in vivo. […] (B) The viability of HCC827, NCI‐H292, NCI‐H1993, and A549 cells treated with various concentrations of DHW‐221 at 24, 48, and 72 h was determined by sulforhodamine B (SRB) assay. […]

# compound, IC50
records = [
    ("COc1ncc(-c2ccc3ncn(-c4ccc(OCCO)cc4)c3c2)cc1NS(=O)(=O)c1ccc(F)cc1F [DHW-221]", "372 nM"),
]
